B1: library; a variant is named by its letters at N, in order (parent)
chain: GCUGUCACCGGUGCUUGGUACGUUAUAUUCAGCCGGUCUGAUGAGUCUNNNNNNAGACGAAACAGC

Variants of: B1
assay-comment: FACS-Seq fitted mean relative fluorescence mCherry/BFP without ligand (log10 relative fluorescence); HEK293T overexpressing SLC46A1; higher = higher reporter protein expression
particulars: without (6R,S)-folinic acid; ligand present: no
Provide the reported FACS-Seq fitted mean (log10) of each item.

# input Could you share which FACS-Seq fitted mean (log10) value was measured for GCUGUCACCGGUGCUUGGUACGUUAUAUUCAGCCGGUCUGAUGAGUCUAGGCAAAGACGAAACAGC [AGGCAA] ?
# output 0.293

# input Could you share which FACS-Seq fitted mean (log10) value was measured for GCUGUCACCGGUGCUUGGUACGUUAUAUUCAGCCGGUCUGAUGAGUCUAAAUUUAGACGAAACAGC [AAAUUU] ?
# output 0.415

# input Could you share which FACS-Seq fitted mean (log10) value was measured for GCUGUCACCGGUGCUUGGUACGUUAUAUUCAGCCGGUCUGAUGAGUCUCAUAUGAGACGAAACAGC [CAUAUG] ?
# output 0.419

# input Could you share which FACS-Seq fitted mean (log10) value was measured for GCUGUCACCGGUGCUUGGUACGUUAUAUUCAGCCGGUCUGAUGAGUCUAGAUUAAGACGAAACAGC [AGAUUA] ?
# output 0.568

# input Could you share which FACS-Seq fitted mean (log10) value was measured for GCUGUCACCGGUGCUUGGUACGUUAUAUUCAGCCGGUCUGAUGAGUCUUAAGGAAGACGAAACAGC [UAAGGA] ?
# output 0.0731

# input Could you share which FACS-Seq fitted mean (log10) value was measured for GCUGUCACCGGUGCUUGGUACGUUAUAUUCAGCCGGUCUGAUGAGUCUUACCGGAGACGAAACAGC [UACCGG] ?
# output 0.355

# input Could you share which FACS-Seq fitted mean (log10) value was measured for GCUGUCACCGGUGCUUGGUACGUUAUAUUCAGCCGGUCUGAUGAGUCUCACGCAAGACGAAACAGC [CACGCA] ?
# output 0.164

# input Could you share which FACS-Seq fitted mean (log10) value was measured for GCUGUCACCGGUGCUUGGUACGUUAUAUUCAGCCGGUCUGAUGAGUCUCGUUGCAGACGAAACAGC [CGUUGC] ?
# output 0.557

# input Could you share which FACS-Seq fitted mean (log10) value was measured for GCUGUCACCGGUGCUUGGUACGUUAUAUUCAGCCGGUCUGAUGAGUCUUGUGCUAGACGAAACAGC [UGUGCU] ?
# output 0.259

# input Could you share which FACS-Seq fitted mean (log10) value was measured for GCUGUCACCGGUGCUUGGUACGUUAUAUUCAGCCGGUCUGAUGAGUCUUGAUUGAGACGAAACAGC [UGAUUG] ?
# output 0.168

# input Could you share which FACS-Seq fitted mean (log10) value was measured for GCUGUCACCGGUGCUUGGUACGUUAUAUUCAGCCGGUCUGAUGAGUCUUUGGUGAGACGAAACAGC [UUGGUG] ?
# output 0.364

# input Could you share which FACS-Seq fitted mean (log10) value was measured for GCUGUCACCGGUGCUUGGUACGUUAUAUUCAGCCGGUCUGAUGAGUCUUCCGAGAGACGAAACAGC [UCCGAG] ?
# output -0.0266

# input Could you share which FACS-Seq fitted mean (log10) value was measured for GCUGUCACCGGUGCUUGGUACGUUAUAUUCAGCCGGUCUGAUGAGUCUUCUGGAAGACGAAACAGC [UCUGGA] ?
# output 0.542

# input Could you share which FACS-Seq fitted mean (log10) value was measured for GCUGUCACCGGUGCUUGGUACGUUAUAUUCAGCCGGUCUGAUGAGUCUCCAGAUAGACGAAACAGC [CCAGAU] ?
# output 0.213

# input Could you share which FACS-Seq fitted mean (log10) value was measured for GCUGUCACCGGUGCUUGGUACGUUAUAUUCAGCCGGUCUGAUGAGUCUAACAACAGACGAAACAGC [AACAAC] ?
# output -0.0136

# input Could you share which FACS-Seq fitted mean (log10) value was measured for GCUGUCACCGGUGCUUGGUACGUUAUAUUCAGCCGGUCUGAUGAGUCUUUCAUGAGACGAAACAGC [UUCAUG] ?
# output 0.548
